- tgt: T1, human GIP receptor (human, UniProt P48546 22-466)
- T1 sequence (looked up): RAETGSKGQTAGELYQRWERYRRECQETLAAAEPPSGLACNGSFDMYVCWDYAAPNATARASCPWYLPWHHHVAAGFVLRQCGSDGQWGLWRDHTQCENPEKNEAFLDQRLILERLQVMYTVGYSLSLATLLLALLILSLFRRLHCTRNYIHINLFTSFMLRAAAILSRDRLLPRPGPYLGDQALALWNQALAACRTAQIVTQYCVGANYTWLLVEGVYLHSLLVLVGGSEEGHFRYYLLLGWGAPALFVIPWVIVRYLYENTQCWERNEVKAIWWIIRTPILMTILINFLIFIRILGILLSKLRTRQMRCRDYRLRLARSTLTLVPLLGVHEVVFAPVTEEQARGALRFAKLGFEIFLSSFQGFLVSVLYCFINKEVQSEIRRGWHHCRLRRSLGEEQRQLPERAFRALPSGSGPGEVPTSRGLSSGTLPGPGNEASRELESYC
- assay_remarks: cell-based or functional assay
parameter_measured: EC50 CreLuc hGIPR 0.5% hP (nM)
Your answer should be a plain number; it is taken to be in nM.

Illustrative cases are given below, each with its answer.
binder	EC50 CreLuc hGIPR 0.5% hP (nM)
YXEGTFTSDYSIXLESQAQXAFVEWLIKGGPSSGASLRHYYNWLTRQRY (Aib at 2, 13, 20; K28 side chain: C20DA-gGlu-gGlu-gGlu-gGlu-gGlu-gGlu-eLys; C-terminal NH2) [Compound 121]	0.65
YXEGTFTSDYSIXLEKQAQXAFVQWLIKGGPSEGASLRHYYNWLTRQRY (Aib at 2, 13, 20; NMeR at 48; K28 side chain: C20DA-gGlu-gGlu-gGlu-gGlu-gGlu-gGlu-eLys; C-terminal NH2) [Compound 125]	0.28

Now look at this entry.
Query: EC50 CreLuc hGIPR 0.5% hP; subject: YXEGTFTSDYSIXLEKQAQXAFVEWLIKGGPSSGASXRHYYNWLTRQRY (Aib at 2, 13, 20; Tle at 37; K28 side chain: C20DA-gGlu-gGlu-gGlu-gGlu-gGlu-gGlu-eLys; C-terminal NH2) [Compound 103]
0.26

Values compiled from patent US20240247080A1.
